Test system: Bacillus subtilis DB104 (SP-AmyQ fusion secretion)
Assay: AmyQ secretion efficiency, weighted average sort bin (1 = best secretion, 10 = worst) (bin number (weighted average, 1-10)); higher = lower secretion efficiency
property_label: AmyQ secretion efficiency
# output: bare number, no unit

In: Please report the recorded AmyQ secretion efficiency for "MLKKIALTLCPAIVGSLLFFTAPASQHVS" .
Out: 5.33

In: Please report the recorded AmyQ secretion efficiency for "MKLRKVLTGSVLSLGLLIVSASPAFATSP" .
Out: 2.48

In: Please report the recorded AmyQ secretion efficiency for "MPIKKKVMMCLAVTLVFGSMSFPTLTNSGEFKE" .
Out: 5.74

In: Please report the recorded AmyQ secretion efficiency for "MTMSSGMSSILAVSVLLLLSRLPVQASLTSE" .
Out: 4.1

In: Please report the recorded AmyQ secretion efficiency for "MRRKRFTALAVFLLCFMPAAKIEHTQASLL" .
Out: 5.25

----------
System: Bacillus subtilis DB104 (SP-AmyQ fusion secretion)
Experiment: AmyQ secretion efficiency, weighted average sort bin (1 = best secretion, 10 = worst) (bin number (weighted average, 1-10)); higher = lower secretion efficiency
Exercise: state measured AmyQ secretion efficiency for each of the sequences provided.
# output: bare number, no unit

In: Query for Bacillus subtilis DB104 (SP-AmyQ fusion secretion): what AmyQ secretion efficiency does the record show for "MLKKKWMVFLLAICLAAFGFSYNAFATEN" ?
Out: 3.29

In: Query for Bacillus subtilis DB104 (SP-AmyQ fusion secretion): what AmyQ secretion efficiency does the record show for "MKVCQKSIVRFLVSLIIGTFVISVPFMANAQSK" ?
Out: 2.23

In: Query for Bacillus subtilis DB104 (SP-AmyQ fusion secretion): what AmyQ secretion efficiency does the record show for "MKSKGSIMACLILFSFTITTTINTETISAFSN" ?
Out: 5.95

In: Query for Bacillus subtilis DB104 (SP-AmyQ fusion secretion): what AmyQ secretion efficiency does the record show for "MKRITINIRRKKIAAAVISLTGTAEAAEK" ?
Out: 6.82

In: Query for Bacillus subtilis DB104 (SP-AmyQ fusion secretion): what AmyQ secretion efficiency does the record show for "MKRRKVLTGSVLSLGLLVSASPAFATSP" ?
Out: 2.61

In: Query for Bacillus subtilis DB104 (SP-AmyQ fusion secretion): what AmyQ secretion efficiency does the record show for "MKKVLMAFIICLSLILRRRKKPPSGAKAESV" ?
Out: 7.24

In: Query for Bacillus subtilis DB104 (SP-AmyQ fusion secretion): what AmyQ secretion efficiency does the record show for "MLKRTSFVSSQGQGSRTLLSILLPSGQAHAQSA" ?
Out: 7.6

In: Query for Bacillus subtilis DB104 (SP-AmyQ fusion secretion): what AmyQ secretion efficiency does the record show for "MKKRITYSLLALLAVVATDSSKAKAAEA" ?
Out: 2.87

In: Query for Bacillus subtilis DB104 (SP-AmyQ fusion secretion): what AmyQ secretion efficiency does the record show for "MSMIGLLFMLCLAALFTIGFPAQQADAAEA" ?
Out: 2

In: Query for Bacillus subtilis DB104 (SP-AmyQ fusion secretion): what AmyQ secretion efficiency does the record show for "MTMLRKIIGWILLLCIIPEFAFTVIASGKEV" ?
Out: 5.32

In: Query for Bacillus subtilis DB104 (SP-AmyQ fusion secretion): what AmyQ secretion efficiency does the record show for "MKKVLMAFIICLSLILTLTSVIFISVLAAPPSGAKAESV" ?
Out: 2.47

In: Query for Bacillus subtilis DB104 (SP-AmyQ fusion secretion): what AmyQ secretion efficiency does the record show for "MKKRLIAPMLLSAASLAFFAMSGSPQAAAY" ?
Out: 5.7

In: Query for Bacillus subtilis DB104 (SP-AmyQ fusion secretion): what AmyQ secretion efficiency does the record show for "MKKVLMAFIICLSLILSAKAESV" ?
Out: 4.24

In: Query for Bacillus subtilis DB104 (SP-AmyQ fusion secretion): what AmyQ secretion efficiency does the record show for "MKKQIITATTAVVLGSTLFAGAAAVASAQSI" ?
Out: 3.9

In: Query for Bacillus subtilis DB104 (SP-AmyQ fusion secretion): what AmyQ secretion efficiency does the record show for "MGLGKKLSVAVAASFMSLSISLPGVQPAEG" ?
Out: 4.8

In: Query for Bacillus subtilis DB104 (SP-AmyQ fusion secretion): what AmyQ secretion efficiency does the record show for "MLKRTSFVSSLFISSAVLLSILLPSGQAHAQKR" ?
Out: 2.41

In: Query for Bacillus subtilis DB104 (SP-AmyQ fusion secretion): what AmyQ secretion efficiency does the record show for "MVKKWLRRRRVMLSVLSTFTYSASAVGV" ?
Out: 6.88

In: Query for Bacillus subtilis DB104 (SP-AmyQ fusion secretion): what AmyQ secretion efficiency does the record show for "MKRLFMKASLVLFAVVFVFAVKGAPLKAETH" ?
Out: 2.67

In: Query for Bacillus subtilis DB104 (SP-AmyQ fusion secretion): what AmyQ secretion efficiency does the record show for "MRKKTKNRLISSVLFMVVIMILLFSPGAAGASSK" ?
Out: 1.52

In: Query for Bacillus subtilis DB104 (SP-AmyQ fusion secretion): what AmyQ secretion efficiency does the record show for "MRSYIKVLTMCFLGLILFVPTQLADNS" ?
Out: 5.96

In: Query for Bacillus subtilis DB104 (SP-AmyQ fusion secretion): what AmyQ secretion efficiency does the record show for "MMIKQCTICLSLLVFGTTAAHAEET" ?
Out: 2.71

In: Query for Bacillus subtilis DB104 (SP-AmyQ fusion secretion): what AmyQ secretion efficiency does the record show for "MGQGKGSVFLILLLMLTLVVAPKEKAEAASS" ?
Out: 1.82

In: Query for Bacillus subtilis DB104 (SP-AmyQ fusion secretion): what AmyQ secretion efficiency does the record show for "MKKLLAAGIIGLLTVSSFAAEK" ?
Out: 6.74

In: Query for Bacillus subtilis DB104 (SP-AmyQ fusion secretion): what AmyQ secretion efficiency does the record show for "MPIKKKVMMCLAVTLVFGSMRRKTLTNSGGFKE" ?
Out: 7.75

In: Query for Bacillus subtilis DB104 (SP-AmyQ fusion secretion): what AmyQ secretion efficiency does the record show for "MRKKTKNRLISSVLSTVVISSPGAAGASSK" ?
Out: 3.33

In: Query for Bacillus subtilis DB104 (SP-AmyQ fusion secretion): what AmyQ secretion efficiency does the record show for "MRKKLKWLSFLLGFIILLFLFKYQRSNNDS" ?
Out: 7.7

In: Query for Bacillus subtilis DB104 (SP-AmyQ fusion secretion): what AmyQ secretion efficiency does the record show for "MRPVFPGKGQYVLFLSCFFGARQTEASASKR" ?
Out: 6.9

In: Query for Bacillus subtilis DB104 (SP-AmyQ fusion secretion): what AmyQ secretion efficiency does the record show for "MKRLLVSLRVWMVFLMNWVTPDRKTQAAAVY" ?
Out: 6.81

In: Query for Bacillus subtilis DB104 (SP-AmyQ fusion secretion): what AmyQ secretion efficiency does the record show for "MKKSQYFIVFICFFVLFSEHEEAAAAADS" ?
Out: 4.11

In: Query for Bacillus subtilis DB104 (SP-AmyQ fusion secretion): what AmyQ secretion efficiency does the record show for "MKKKLAAGLTASAIVGTTLVVTPCEAATI" ?
Out: 1.75

In: Query for Bacillus subtilis DB104 (SP-AmyQ fusion secretion): what AmyQ secretion efficiency does the record show for "MTTWIVLFLVLIAAAISIFVYVSTGSEK" ?
Out: 8.09

In: Query for Bacillus subtilis DB104 (SP-AmyQ fusion secretion): what AmyQ secretion efficiency does the record show for "MRKKLKWLSFLLGFIILLFLFKYQSSNNDS" ?
Out: 6.36

In: Query for Bacillus subtilis DB104 (SP-AmyQ fusion secretion): what AmyQ secretion efficiency does the record show for "MLSIWIGMLAAAVLLLMVPKVSLADAA" ?
Out: 6.86

----------
Test system: Bacillus subtilis DB104 (SP-AmyQ fusion secretion)
Experiment: AmyQ secretion efficiency, weighted average sort bin (1 = best secretion, 10 = worst) (bin number (weighted average, 1-10)); higher = lower secretion efficiency
Exercise: state measured AmyQ secretion efficiency for each of the sequences provided.
# output: bare number, no unit

In: Query for Bacillus subtilis DB104 (SP-AmyQ fusion secretion): what AmyQ secretion efficiency does the record show for "MRGTSVVGFLSVLGLAAVFPLTAQAEKA" ?
Out: 2.91

In: Query for Bacillus subtilis DB104 (SP-AmyQ fusion secretion): what AmyQ secretion efficiency does the record show for "MKSKWMSGLLLVAVGFSFTQVMVHWGET" ?
Out: 5.88

In: Query for Bacillus subtilis DB104 (SP-AmyQ fusion secretion): what AmyQ secretion efficiency does the record show for "MKKKIVAGLAVSAVVDEDEEAAPAEAKTI" ?
Out: 5.93

----------
Tested on: Bacillus subtilis DB104 (SP-AmyQ fusion secretion)
Assay: AmyQ secretion efficiency, weighted average sort bin (1 = best secretion, 10 = worst) (bin number (weighted average, 1-10)); higher = lower secretion efficiency
property_label: AmyQ secretion efficiency

In: Query for Bacillus subtilis DB104 (SP-AmyQ fusion secretion): what AmyQ secretion efficiency does the record show for "MTKKAWFLPLVCVLLISGWLAPAASASQQTT" ?
Out: 2.02

In: Query for Bacillus subtilis DB104 (SP-AmyQ fusion secretion): what AmyQ secretion efficiency does the record show for "MTMLRKIIGWILLLCIIPLFAFTVIASDKEV" ?
Out: 7.16

In: Query for Bacillus subtilis DB104 (SP-AmyQ fusion secretion): what AmyQ secretion efficiency does the record show for "MRPVFPLILSAVLFLSCFFGARQTEYSASKR" ?
Out: 8.3

In: Query for Bacillus subtilis DB104 (SP-AmyQ fusion secretion): what AmyQ secretion efficiency does the record show for "MKMKSGMEQAVSVLLLLSRLPVQASITSE" ?
Out: 7.01

In: Query for Bacillus subtilis DB104 (SP-AmyQ fusion secretion): what AmyQ secretion efficiency does the record show for "MKMKSGMEQAVSVLLLLSRLPVQASLTSH" ?
Out: 7.82

In: Query for Bacillus subtilis DB104 (SP-AmyQ fusion secretion): what AmyQ secretion efficiency does the record show for "MKWMCSICCAAVLLAGGAAQMEAV" ?
Out: 3.22

In: Query for Bacillus subtilis DB104 (SP-AmyQ fusion secretion): what AmyQ secretion efficiency does the record show for "MRKKRQVCLWILVLLLSCLSGKSAYAATS" ?
Out: 2.64

In: Query for Bacillus subtilis DB104 (SP-AmyQ fusion secretion): what AmyQ secretion efficiency does the record show for "MKKFFGPIILAFILFAGAIAIPS" ?
Out: 6.93

In: Query for Bacillus subtilis DB104 (SP-AmyQ fusion secretion): what AmyQ secretion efficiency does the record show for "MKKQKKIAGVLTVAAAAMTAKMYATAKGN" ?
Out: 7.17

In: Query for Bacillus subtilis DB104 (SP-AmyQ fusion secretion): what AmyQ secretion efficiency does the record show for "MKKWIYVVLVLSIAGIGGFSMHAASS" ?
Out: 5.22
